Biological target: T1, human CD1a expressed on cells (human, UniProt P06126 17-327; P61769 21-119)
T1 construct: also called HEK - CD1a; C1R - CD1a
Assay: flow cytometry, MOLT4 cells, 0.316 µg/ml antibody
The following binders are shown together with reported Fluorescence Intensity Geomean (normalized to background) values.
property name: Fluorescence Intensity Geomean (normalized to background) (fold over background)

binder	result value
116 (VR12117) (antibody, V domains shown, also called OX116) VH: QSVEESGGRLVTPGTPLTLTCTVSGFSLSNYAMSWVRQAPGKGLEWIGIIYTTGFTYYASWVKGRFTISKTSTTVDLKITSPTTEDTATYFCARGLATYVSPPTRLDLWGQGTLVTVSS VL: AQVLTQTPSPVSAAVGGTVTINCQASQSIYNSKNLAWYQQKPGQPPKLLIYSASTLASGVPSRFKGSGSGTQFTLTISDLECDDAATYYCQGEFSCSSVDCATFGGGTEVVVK	29.6
110 (VR12112) (antibody, V domains shown, also called OX110; antibody 110) VH: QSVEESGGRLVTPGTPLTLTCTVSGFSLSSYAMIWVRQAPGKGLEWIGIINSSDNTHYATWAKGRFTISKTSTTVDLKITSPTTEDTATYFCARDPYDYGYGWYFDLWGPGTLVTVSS VL: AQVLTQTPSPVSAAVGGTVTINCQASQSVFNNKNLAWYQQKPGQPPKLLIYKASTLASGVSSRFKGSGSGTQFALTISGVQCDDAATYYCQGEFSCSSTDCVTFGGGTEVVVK	27.1
77A (VR11851) (antibody, V domains shown, also called OX77a; antibody 77a) VH: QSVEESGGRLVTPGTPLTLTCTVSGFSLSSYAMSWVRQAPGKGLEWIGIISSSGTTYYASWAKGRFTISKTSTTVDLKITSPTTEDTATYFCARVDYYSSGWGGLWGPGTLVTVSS VL: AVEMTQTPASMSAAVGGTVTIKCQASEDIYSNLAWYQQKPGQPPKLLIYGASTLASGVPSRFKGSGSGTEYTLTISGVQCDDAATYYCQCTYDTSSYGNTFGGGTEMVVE	15.2
